System: Staphylococcus sp.
procedure text: In vitro antibacterial evaluation: minimum inhibitory concentration (MIC), broth dilution method
Format: cell-based
measurement context: broth dilution, 5×10^5 CFU/mL, 18 hours at 35° C.
Reported MIC Staphylococcus haemolyticus (GC 4546) values for a set of compounds
Numeric answer only, unit µg/mL assumed.

- compound: "CC(c1ccccc1)C1NC(=O)CNC(=O)C(CO)NC(=O)C(C(O)C2CNC(=N)N2C2OC(CO)C(O)C(O)C2O)NC(=O)C(C(O)C2CNC(=N)N2)NC(=O)C(Cc2ccc(OC3OC(CO)C(OC4OC5COC(C67CC8CC(CC(C8)C6)C7)OC5C(O)C4O)C(O)C3O)cc2)NC1=O (stereo not shown)"
  measurement target: "Staphylococcus sp."
  measured number: 2

The reported value for CC(c1ccccc1)C1NC(=O)CNC(=O)C(CO)NC(=O)C(C(O)C2CNC(=N)N2C2OC(CO)C(O)C(O)C2O)NC(=O)C(C(O)C2CNC(=N)N2)NC(=O)C(Cc2ccc(OC3OC(CO)C(OC4OC5COC(c6cccc(Cl)c6)OC5C(O)C4O)C(O)C3O)cc2)NC1=O (stereo not shown) in terms of MIC Staphylococcus haemolyticus (GC 4546) is 2

Looking up COc1cc(C2OCC3OC(OC4C(CO)OC(Oc5ccc(CC6NC(=O)C(C(C)c7ccccc7)NC(=O)CNC(=O)C(CO)NC(=O)C(C(O)C7CNC(=N)N7C7OC(CO)C(O)C(O)C7O)NC(=O)C(C(O)C7CNC(=N)N7)NC6=O)cc5)C(O)C4O)C(O)C(O)C3O2)cc([N+](=O)[O-])c1O (stereo not shown) , I see its MIC Staphylococcus haemolyticus (GC 4546) listed as 32
